Quick note: these are pIC50 numbers for system: p300 HAT domain (residues 1287-1666) (Homo sapiens (Human), UniProt Q09472)
Sequence (Q09472 1287-1666): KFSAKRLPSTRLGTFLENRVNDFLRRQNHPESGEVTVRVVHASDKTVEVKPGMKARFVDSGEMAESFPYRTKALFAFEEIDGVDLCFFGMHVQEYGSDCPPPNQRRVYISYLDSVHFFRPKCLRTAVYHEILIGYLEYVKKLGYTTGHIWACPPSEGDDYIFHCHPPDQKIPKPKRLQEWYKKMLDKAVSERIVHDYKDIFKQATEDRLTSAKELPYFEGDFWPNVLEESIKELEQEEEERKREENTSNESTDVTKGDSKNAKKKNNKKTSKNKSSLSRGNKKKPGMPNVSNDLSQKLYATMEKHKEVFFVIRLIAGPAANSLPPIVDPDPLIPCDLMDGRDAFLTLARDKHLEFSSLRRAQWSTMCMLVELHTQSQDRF
pIC50: −log10 of the molar value.
value-type: pIC50

[[record]]
molecule = "Cc1ccc(C(C)CNC(C(=O)Nc2ccc(-c3cnn(C)c3)cn2)c2ccccc2)cn1 (single isomer, unassigned) [143 Isomer 2]"
tested_on = "p300 HAT domain (residues 1287-1666) (Homo sapiens (Human), UniProt Q09472)"
endpoint_result = 7.67


I. CC(=O)N1CCN(c2ccc(NC(=O)C(NCCc3ccc(C#N)cc3)c3ccccc3)nc2)CC1 (single isomer, unassigned) [72 Isomer 1]
II. CC(CNC(C(=O)Nc1ccc(-c2cnn(C)c2)cn1)c1ccccc1)c1ccc(C#N)c(F)c1 (single isomer, unassigned) [91 Isomer 2]
Given I and II , report the one with the higher recorded pIC50. Please respond with the label that marks your chosen entry.
II
(II: 8.19, I: 7.07)

I. Cc1cn(-c2ccc(NC(=O)C(NCCc3ccc(C#N)cc3)c3ccccc3)nc2)nn1 (single isomer, unassigned) [78 Isomer 1]
II. C[C@H](CNC(C(=O)Nc1ccc(-c2ccc(=O)n(C)n2)cn1)c1ccccc1)c1ccc(C#N)cc1 (single isomer, unassigned) [134 Isomer 2]
III. Cc1ncc(-c2ccc(NC(=O)[C@@H](NC[C@@H](C)c3ccc(C#N)cc3)c3ccccc3)nc2)cn1 (single isomer, unassigned; isomer 1) [6 Isomer 1]
Number of molecules to sort: 3. Sort criterion: pIC50, ascending. Enter labels, ranked according to the request.
III, I, II

---

Consider molecules characterized by their IC50 with p300 HAT domain (residues 1287-1666) (Homo sapiens (Human)).
value-type: IC50 (µM)

[[record]]
molecule = "CC(CNC(C(=O)Nc1ccc(-n2cnc(C(C)(C)C)c2)cn1)c1ccccc1)c1ccc(C#N)cc1 (single isomer, unassigned) [59 Isomer 1]"
units = "µM"
endpoint_result = 1.5


1. CC(CNC(C(=O)Nc1ccc(-c2cnn(C(F)F)c2)cn1)c1cnn(C)c1)c1ccc(C#N)cc1 (single isomer, unassigned) [128 Isomer 1]
2. CC(CNC(C(=O)Nc1ccc(-c2cnn(C)c2)cn1)c1ccccc1)c1ccc(C#N)cc1F (single isomer, unassigned) [90 Isomer 3]
Sorting ascending by IC50, which comes first: 1 or 2 ? State the label of the item chosen.
1

---

- tested-on: full length p300 (Homo sapiens (Human), UniProt Q09472)
- Sequence (Q09472 whole entry): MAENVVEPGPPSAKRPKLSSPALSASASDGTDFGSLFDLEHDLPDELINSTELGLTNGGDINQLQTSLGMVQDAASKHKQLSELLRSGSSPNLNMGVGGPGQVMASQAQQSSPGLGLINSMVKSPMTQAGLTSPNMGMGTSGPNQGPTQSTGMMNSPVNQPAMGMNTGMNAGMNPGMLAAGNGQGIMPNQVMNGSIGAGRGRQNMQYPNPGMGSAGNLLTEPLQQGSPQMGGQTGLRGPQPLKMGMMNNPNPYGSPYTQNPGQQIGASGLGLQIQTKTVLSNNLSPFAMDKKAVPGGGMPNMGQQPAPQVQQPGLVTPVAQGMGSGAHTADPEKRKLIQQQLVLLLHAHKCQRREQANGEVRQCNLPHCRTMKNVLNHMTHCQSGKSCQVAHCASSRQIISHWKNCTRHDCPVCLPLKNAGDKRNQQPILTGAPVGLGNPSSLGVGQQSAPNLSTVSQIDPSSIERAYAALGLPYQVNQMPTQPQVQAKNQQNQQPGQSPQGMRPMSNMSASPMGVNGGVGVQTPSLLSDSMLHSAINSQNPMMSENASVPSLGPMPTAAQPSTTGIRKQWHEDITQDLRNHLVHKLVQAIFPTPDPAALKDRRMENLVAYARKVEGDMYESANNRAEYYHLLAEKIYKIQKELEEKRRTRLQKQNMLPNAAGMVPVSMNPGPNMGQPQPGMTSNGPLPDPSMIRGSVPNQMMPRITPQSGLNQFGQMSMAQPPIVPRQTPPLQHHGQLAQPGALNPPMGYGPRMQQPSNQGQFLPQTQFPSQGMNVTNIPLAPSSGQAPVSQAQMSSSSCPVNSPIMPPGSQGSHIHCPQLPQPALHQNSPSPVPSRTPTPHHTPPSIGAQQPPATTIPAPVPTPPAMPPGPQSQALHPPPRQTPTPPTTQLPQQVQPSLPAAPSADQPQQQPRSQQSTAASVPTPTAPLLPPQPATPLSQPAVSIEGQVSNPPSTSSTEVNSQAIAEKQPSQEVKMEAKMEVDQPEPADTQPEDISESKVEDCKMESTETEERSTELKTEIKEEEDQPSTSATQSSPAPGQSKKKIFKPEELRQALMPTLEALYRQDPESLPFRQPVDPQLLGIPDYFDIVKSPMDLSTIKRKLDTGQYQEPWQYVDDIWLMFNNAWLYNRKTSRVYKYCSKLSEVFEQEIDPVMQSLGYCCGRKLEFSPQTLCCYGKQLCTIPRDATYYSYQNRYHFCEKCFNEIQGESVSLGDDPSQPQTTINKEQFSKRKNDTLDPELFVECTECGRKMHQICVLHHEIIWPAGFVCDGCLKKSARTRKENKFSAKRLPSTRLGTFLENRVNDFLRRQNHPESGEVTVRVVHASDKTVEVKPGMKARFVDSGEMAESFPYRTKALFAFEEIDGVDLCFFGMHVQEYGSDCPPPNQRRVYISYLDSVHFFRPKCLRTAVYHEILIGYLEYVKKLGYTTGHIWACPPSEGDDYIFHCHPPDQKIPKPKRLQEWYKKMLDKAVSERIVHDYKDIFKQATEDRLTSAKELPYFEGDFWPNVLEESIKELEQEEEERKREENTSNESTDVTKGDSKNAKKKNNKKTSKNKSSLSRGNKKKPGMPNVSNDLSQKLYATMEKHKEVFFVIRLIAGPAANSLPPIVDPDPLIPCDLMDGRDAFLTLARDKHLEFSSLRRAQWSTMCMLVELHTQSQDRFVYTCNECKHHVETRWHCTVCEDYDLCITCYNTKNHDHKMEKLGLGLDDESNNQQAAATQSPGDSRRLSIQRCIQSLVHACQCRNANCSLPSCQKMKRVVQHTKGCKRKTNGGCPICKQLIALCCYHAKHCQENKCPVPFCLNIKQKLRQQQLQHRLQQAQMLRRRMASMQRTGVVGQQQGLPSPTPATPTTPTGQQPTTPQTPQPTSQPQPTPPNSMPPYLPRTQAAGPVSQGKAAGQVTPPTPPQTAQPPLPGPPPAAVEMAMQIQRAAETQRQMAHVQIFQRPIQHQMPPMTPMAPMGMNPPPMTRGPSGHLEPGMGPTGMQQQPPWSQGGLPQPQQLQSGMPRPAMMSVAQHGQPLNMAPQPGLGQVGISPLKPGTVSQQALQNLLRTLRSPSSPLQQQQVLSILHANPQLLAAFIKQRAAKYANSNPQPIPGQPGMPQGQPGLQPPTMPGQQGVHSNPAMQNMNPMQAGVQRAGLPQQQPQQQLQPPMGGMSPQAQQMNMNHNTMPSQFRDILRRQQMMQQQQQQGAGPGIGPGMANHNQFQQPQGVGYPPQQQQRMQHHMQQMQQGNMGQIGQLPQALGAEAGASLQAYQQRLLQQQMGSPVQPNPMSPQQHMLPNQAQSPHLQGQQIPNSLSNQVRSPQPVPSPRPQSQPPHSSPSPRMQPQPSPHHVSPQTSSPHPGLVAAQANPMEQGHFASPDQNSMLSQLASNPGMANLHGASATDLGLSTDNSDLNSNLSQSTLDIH
pIC50: −log10 of the molar value.
value-type: pIC50

[[record]]
compound = "CC(CNC(C(=O)Nc1ccc(-c2cn(C)nn2)cn1)c1ccccc1)c1ccc(C#N)cc1 (single isomer, unassigned) [100 Isomer 2]"
endpoint_result = 9.25


a. Cc1cnn(-c2ccc(NC(=O)C(NCC(C)c3ccc(C#N)cc3)c3ccccc3)nc2)c1 (single isomer, unassigned) [62 Isomer 1]
b. CC(CNC(C(=O)Nc1ccc(N2CCN(C)C(=O)C2)cn1)c1ccccc1)c1ccc(C#N)cc1 (single isomer, unassigned) [101 Isomer 1]
Hey, which is lower on measured pIC50, a or b ? Lab note: record the label of whichever item you select.
a
(a: 6.65, b: 8.94)

---

- tested-on: p300 HAT domain (residues 1287-1666) (Homo sapiens (Human))
pIC50: −log10 of the molar value.
value-type: pIC50

[[record]]
compound = "CC(CNC(C(=O)Nc1ccc(-c2cnn(C(F)F)c2)cn1)c1cnn(C)c1)c1ccc(C#N)cc1 (single isomer, unassigned) [128 Isomer 4]"
endpoint_result = 7.60


A. CC(CNC(C(=O)Nc1ccc(-c2cnn(C(C)(C)C#N)c2)cn1)c1ccccc1)c1ccc(C#N)cc1 (single isomer, unassigned) [47 Isomer 2]
B. CCCCCCc1cccc(C(NCCc2ccc(C#N)cc2)C(=O)Nc2ccc(-c3cnn(C)c3)cn2)c1 (single isomer, unassigned) [118 Isomer 2]
Two entries are listed, A and B . Which one carries the higher pIC50? Your choice should be expressed through its label.
A

Reference source: patent US11274090B2
